System: HS 578T breast
assay.remarks: NCI tumour cell line growth inhibition, 48 h
Each entry below lists one item and its recorded TGI value.

| compound | TGI |
| --- | --- |
| Cc1cc(C)n2nc3nc(N)c(C#N)c(-c4ccccc4)c3c2n1 | > 100 µM |
| CN1CCN(CCOc2ccc(-c3cnc4c(-c5ccccc5F)cnn4c3)cc2)CC1 | 5.22 µM |
| Oc1c(C2=NNC(c3ccc(Cl)cc3Cl)C2)ccc2ccccc12 (stereo unspecified) | > 100 µM |
| COc1cc(C2SCC(=O)N2c2ccccn2)cc(OC)c1OC (stereo unspecified) | > 100 µM |
| CC(C)(C)OC(=O)N1CCc2[nH][nH]c(=O)c2C1 | > 100 µM |
| COC(=O)c1cc2c3c(ccc2[nH]1)N(C(=O)c1cc2cc(OC)c(OC)c(OC)c2[nH]1)CC3CCl (stereo unspecified) | > 100 µM |
| COCC1OC(Sc2ccccc2)C(O)C(OC)C1OC (stereo unspecified) | > 100 µM |
| Cc1ccc(C)c(C2=C(c3cn(C)c4ccccc34)C(=O)NC2=O)c1 | > 25 µM |
| COc1cc(C#CC(=O)OC/C=C/c2ccc3c(c2)OCO3)cc(OC)c1OC | 51 µM |
| Nc1c2c(nc3cc(F)c(F)cc13)CCC2 | > 100 µM |
| Clc1nc2ccccc2nc1CI | 77.6 µM |

----------
System: UACC-257 melanoma
assay.remarks: NCI tumour cell line growth inhibition, 48 h

| compound | study.target | GI50 |
| --- | --- | --- |
| N#CC(=C1C=CC(=NO)C=C1)c1ccccc1 | UACC-257 melanoma | 2.12 µM |
| CCOC(=O)CCCn1c(SC)nc2[nH]cc(-c3ccccc3)c2c1=O | UACC-257 melanoma | 22.7 µM |
| COc1ccc(C(C)=O)cc1N1C(=O)C2C(C1=O)C1(c3ccccc3)C(=O)C2(c2ccccc2)C(c2ccc(C)cc2)=C1c1ccc(C)cc1 (stereo not given) | UACC-257 melanoma | > 100 µM |
| OC[C@H]1C[C@](O)(c2ccc(Cl)cc2)[C@@H](c2ccc(Cl)cc2)O1 | UACC-257 melanoma | 21.2 µM |
| C=CCCCCC/C=C\[C@H](O)C#CC#C/C=C/CO | UACC-257 melanoma | 78.9 µM |

----------
Test system: NCI-H23 lung
assay.remarks: NCI tumour cell line growth inhibition, 48 h
Recorded TGI values for a group of molecules are listed next.

| molecule | result.comparator | TGI, µM |
| --- | --- | --- |
| CCCN=C(N)NC#N | > | 100 |
| COC(=O)C1=C(C)NC2=C(C(=O)c3ccccc32)C1c1cn(-c2ccccc2)nc1-c1ccccc1 (stereo not given) | > | 100 |
| Cc1nn(-c2ccccc2)c2nc(N3CCOCC3)nnc12 | > | 100 |
| CCOc1cc2c(OCc3ccccc3)cc3c4cc(OC)c(OC)cc4c[n+](C)c3c2cc1OC | = | 9.1 |
| CC(C)(C)[Si](OC1CC(n2cnc3c(N)ncnc32)OC1CO)(c1ccccc1)c1ccccc1 (stereo not given) | = | 28 |

----------
System: CCRF-CEM leukemia
assay.remarks: NCI tumour cell line growth inhibition, 48 h

| compound | study.target | TGI |
| --- | --- | --- |
| COC1(OC)CC2C(=O)N(Cc3ccccc3)C1C(S(=O)(=O)c1ccccc1)C2S(=O)(=O)c1ccccc1 (centres undefined) | CCRF-CEM leukemia | 13.7 µM |
| Nc1ncnc2c1ccn2C/C=C\CO | CCRF-CEM leukemia | > 100 µM |
| Cc1cc2c(cc1Cl)SC(NS(=O)(=O)c1ccc(Cl)cc1)=NS2(=O)=O | CCRF-CEM leukemia | > 100 µM |
| N#CC(N)(C(=O)CCC(=O)Nc1cccc(Cl)c1)c1ccc(Cl)cc1 (centres undefined) | CCRF-CEM leukemia | > 100 µM |
